Tested on: morningglory (Ipomoea spp.)
Assay: Test A preemergence, morningglory
Format: in vivo
Details: 125 g ai/ha, 0 to 100 scale (0 no effect, 100 complete control)
I'd be grateful if you could share measured Plant response rating, Morningglory for these entries.
Answers are plain numbers.

CC1(C)CC([S+]([O-])Cc2c(C(F)(F)F)nc3n(c2=O)CCCCC3)=NO1 (centres unmarked)	0
CC1(C)CC(S(=O)(=O)Cc2c(C(F)(F)Cl)nc3n(c2=O)CCC3)=NO1	0
CC1(C)CC([S+]([O-])Cc2c(C(F)(F)F)nc3n(c2=O)CCS3)=NO1 (centres unmarked)	0

For the 5 compounds below, give their Plant response rating, Morningglory values.
1. CC1(C)CC(S(=O)(=O)Cc2c(C(F)(F)C(F)(F)F)nc3n(c2=O)CCC3)=NO1
2. Cc1cc2nc(C(F)(F)F)c(CS(=O)(=O)C3=NOC(C)(C)C3)c(=O)n2o1
3. CC1(C)CC([S+]([O-])Cc2c(C(F)(F)F)nc3n(c2=O)CCC3)=NO1 (centres unmarked)
4. CC1(C)CC([S+]([O-])Cc2c(C(F)(F)F)nc3n(c2=O)CCCO3)=NO1 (centres unmarked)
5. CC1(C)CC(S(=O)(=O)Cc2c(C(F)(F)F)nc3n(c2=O)CCS3)=NO1

Response line:
50
0
0
0
90

Provide Plant response rating, Morningglory for all items below, preserving their order.
1. CC1(C)CC([S+]([O-])Cc2c(C(F)(F)C(F)(F)F)nc3n(c2=O)CCC3)=NO1 (centres unmarked)
2. CC1(C)CC(S(=O)(=O)Cc2c(C(F)(F)F)nc3n(c2=O)CCCC3)=NO1
3. CC1(C)CC(S(=O)(=O)Cc2c(C(F)(F)Cl)nc3n(c2=O)CCCC3)=NO1

Response line:
[0, 20, 30]

List Plant response rating, Morningglory for every entry below, keeping the order given.
1. Cc1con2c(=O)c(C[S+]([O-])C3=NOC(C)(C)C3)c(C(F)(F)F)nc12 (centres unmarked)
2. CC1(C)CC(S(=O)(=O)Cc2c(C(F)(F)F)nc3n(c2=O)CCCCC3)=NO1

Response line:
1. 0
2. 20

---

System: green foxtail (Setaria viridis)
Experiment: Test B preemergence, green foxtail
Assay type: in vivo
Settings: 125 g ai/ha, scale 0 to 100
reported-property: Plant response rating, Foxtail, Green

Example compounds with recorded Plant response rating, Foxtail, Green:
CC1(C)CC(S(=O)(=O)Cc2c(C(F)(F)F)nc3n(c2=O)CCCC3)=NO1	98
CC1(C)CC(S(=O)(=O)Cc2c(C(F)(F)F)nc3ccsn3c2=O)=NO1	98
CC1(C)CC(S(=O)(=O)Cc2c(C(F)(F)Cl)nc3n(c2=O)CCC3)=NO1	98

Provide reported Plant response rating, Foxtail, Green for each item, in the same order as listed.
1. CC1(C)CC(S(=O)(=O)Cc2c(C(F)(F)C(F)(F)F)nc3n(c2=O)CCC3)=NO1
2. CC1(C)CC(S(=O)(=O)Cc2c(C(F)(F)C(F)(F)F)nc3n(c2=O)CCCC3)=NO1
3. CC1(C)CC(S(=O)(=O)Cc2c(C(F)(F)F)nc3n(c2=O)CCC3)=NO1

Response line:
100
100
100

Prompt line: State its Plant response rating, Foxtail, Green on green foxtail (Setaria viridis): CC1(C)CC(S(=O)(=O)Cc2c(C(F)(F)F)nc3n(c2=O)CCS3)=NO1
Response line: 100

---

Please go through the items and note down their Plant response rating, Ducksalad.
Test system: ducksalad (Heteranthera limosa)
Experiment: Test B flooded paddy test, ducksalad
Assay type: in vivo
Settings: Flood, 250 g ai/ha; scale 0 to 100

Some compounds with known Plant response rating, Ducksalad results, for comparison:
CC1(C)CC([S+]([O-])Cc2c(C(F)(F)C(F)(F)F)nc3n(c2=O)CCC3)=NO1 (centres unmarked)	0
CC1(C)CC([S+]([O-])Cc2c(C(F)(F)Cl)nc3n(c2=O)CCCS3)=NO1 (centres unmarked)	0
CC1(C)CC(S(=O)(=O)Cc2c(C(F)(F)C(F)(F)F)nc3n(c2=O)CCC3)=NO1	0
CC1(C)CC(S(=O)(=O)Cc2c(C(F)(F)F)nc3n(c2=O)CCCC3)=NO1	20

For every record below, what is its Plant response rating, Ducksalad?
1. CC1(C)CC([S+]([O-])Cc2c(C(F)(F)F)nc3n(c2=O)CCC3)=NO1 (centres unmarked)
2. CC1(C)CC([S+]([O-])Cc2c(C(F)(F)F)nc3n(c2=O)CCCO3)=NO1 (centres unmarked)
3. CC1(C)CC(S(=O)(=O)Cc2c(C(F)(F)C(F)(F)F)nc3n(c2=O)CCCO3)=NO1
4. CC1(C)CC([S+]([O-])Cc2c(C(F)(F)F)nc3n(c2=O)CCS3)=NO1 (centres unmarked)

Response line:
1. 0
2. 40
3. 0
4. 20

---

Test system: barnyardgrass (Echinochloa crus-galli)
Experiment: Test A preemergence, barnyardgrass
Assay type: in vivo
Conditions: 500 g ai/ha, 0 to 100 scale (0 no effect, 100 complete control)
Binary call on Plant response rating, Barnyardgrass: 1 from 80 upward, 0 beneath that.

Worked set:
CC1(C)CC([S+]([O-])Cc2c(C(F)(F)F)nc3cccnn3c2=O)=NO1 (stereo not drawn)	0
CC1(C)CC([S+]([O-])Cc2c(C(F)(F)F)nc3n(c2=O)CCCO3)=NO1 (stereo not drawn)	0
CC1(C)CC(S(=O)(=O)Cc2c(C(F)(F)F)nc3n(c2=O)CCS3)=NO1	1
CC1(C)CC([S+]([O-])Cc2c(C(F)(F)F)nc3ccon3c2=O)=NO1 (stereo not drawn)	0
CC1(C)CC([S+]([O-])Cc2c(C(F)(F)Cl)nc3n(c2=O)CCCC3)=NO1 (stereo not drawn)	0
CC1(C)CC(S(=O)(=O)Cc2c(C(F)(F)F)nc3n(c2=O)CCCO3)=NO1	1
CC1(C)CC(S(=O)(=O)Cc2c(C(F)(F)F)nc3n(c2=O)CCC3)=NO1	1
Cc1con2c(=O)c(C[S+]([O-])C3=NOC(C)(C)C3)c(C(F)(F)F)nc12 (stereo not drawn)	0
CC1(C)CC(S(=O)(=O)Cc2c(C(F)(F)F)nc3n(c2=O)CCCC3)=NO1	1

Okay, now this compound:
Prompt line: Form field: Plant response rating, Barnyardgrass at least 80? Entry: CC1(C)CC(S(=O)(=O)Cc2c(C(F)(F)Cl)nc3n(c2=O)CCC3)=NO1
Response line: 1

---

System: wheat (Triticum aestivum)
Assay: Test A postemergence, wheat
Type: in vivo
Details: 500 g ai/ha, 0 to 100 scale (0 no effect, 100 complete control)
reported-property: Plant response rating, Wheat
Give bare numbers.

CC1(C)CC(S(=O)(=O)Cc2c(C(F)(F)F)nc3n(c2=O)CCCC3)=NO1 [Compound 8]	60

Give me Plant response rating, Wheat for each of these compounds, listed below.
1. CC1(C)CC(S(=O)(=O)Cc2c(C(F)(F)F)nc3ccon3c2=O)=NO1 [Compound 42]
2. CC1(C)CC(S(=O)(=O)Cc2c(C(F)(F)C(F)(F)F)nc3n(c2=O)CCCC3)=NO1 [Compound 21]

Response line:
20
20

---

System: pigweed (Amaranthus retroflexus)
Experiment: Test A postemergence, pigweed
Assay type: in vivo
Settings: 500 g ai/ha, 0 to 100 scale (0 no effect, 100 complete control)
reported-property: Plant response rating, Pigweed
Numbers only.

Some solved entries appear below for comparison.
CCn1c(=O)c(C[S+]([O-])C2=NOC(C)(C)C2)nc2cccnc21 (stereo not shown)	0
Cc1con2c(=O)c(C[S+]([O-])C3=NOC(C)(C)C3)c(C(F)(F)F)nc12 (stereo not shown)	0
CC1(C)CC([S+]([O-])Cc2c(C(F)(F)C(F)(F)F)nc3n(c2=O)CCCS3)=NO1 (stereo not shown)	0

Could you now look at the following compound, please?
Prompt line: Lookup: Plant response rating, Pigweed / pigweed (Amaranthus retroflexus) / CC1(C)CC([S+]([O-])Cc2c(C(F)(F)Cl)nc3n(c2=O)CCCC3)=NO1 (stereo not shown)
Response line: 30

---

Test system: umbrella sedge (Cyperus difformis)
Experiment: Test B flooded paddy test, umbrella sedge
Assay type: in vivo
Conditions: Flood, 125 g ai/ha; scale 0 to 100
reported-property: Plant response rating, Sedge, Umbrella
Numbers only.

Take a look at these entries with their results.
CC1(C)CC(S(=O)(=O)Cc2c(C(F)(F)C(F)(F)F)nc3n(c2=O)CCCO3)=NO1 [Compound 55]	0
CC1(C)CC([S+]([O-])Cc2c(C(F)(F)C(F)(F)F)nc3n(c2=O)CCC3)=NO1 (stereo not drawn) [Compound 27]	0
CC1(C)CC([S+]([O-])Cc2c(C(F)(F)C(F)(F)F)nc3n(c2=O)CCCS3)=NO1 (stereo not drawn) [Compound 40]	0

Required: Plant response rating, Sedge, Umbrella, one value per molecule below.
1. CC1(C)CC([S+]([O-])Cc2c(C(F)(F)F)nc3ccon3c2=O)=NO1 (stereo not drawn) [Compound 43]
2. CC1(C)CC([S+]([O-])Cc2c(C(F)(F)Cl)nc3n(c2=O)CCCS3)=NO1 (stereo not drawn) [Compound 36]
3. CC1(C)CC(S(=O)(=O)Cc2c(C(F)(F)Cl)nc3n(c2=O)CCCC3)=NO1 [Compound 30]
4. Cn1c(=O)c(CS(=O)(=O)C2=NOC(C)(C)C2)c(C(F)(F)F)c2ccccc21 [Compound 1]
5. CC1(C)CC(S(=O)(=O)Cc2c(C(F)(F)F)nc3ccon3c2=O)=NO1 [Compound 42]
6. CC1(C)CC([S+]([O-])Cc2c(C(F)(F)F)nc3cccnn3c2=O)=NO1 (stereo not drawn) [Compound 46]

Response line:
1: 20; 2: 0; 3: 0; 4: 0; 5: 0; 6: 0

I'm hoping you can list Plant response rating, Sedge, Umbrella for every molecule here, please.
1. Cc1con2c(=O)c(CS(=O)(=O)C3=NOC(C)(C)C3)c(C(F)(F)F)nc12 [Compound 56]
2. CC1(C)CC([S+]([O-])Cc2c(C(F)(F)C(F)(F)F)nc3n(c2=O)CCS3)=NO1 (stereo not drawn) [Compound 41]

Response line:
20
0

Prompt line: Could you share which Plant response rating, Sedge, Umbrella value was measured for CCn1c(=O)c(C[S+]([O-])C2=NOC(C)(C)C2)nc2cccnc21 (stereo not drawn) [Compound 38] ?
Response line: 0
